System: Parabacteroides merdae
Experiment: growth AUC relative to DMSO control (median of replicates) (fraction); higher = more growth (less inhibition), active = hit call of the paper
Conditions: 20 µM; 24 h
READOUT_KIND: growth AUC

compound="CCc1cccc(C)c1NC(C)C(=O)O (racemic)" test_system="Parabacteroides merdae" readout_kind="growth AUC" value_reported=1
compound=Clc1ccc(Sc2cc(Cl)c(Cl)cc2Cl)cc1 test_system="Parabacteroides merdae" readout_kind="growth AUC" value_reported=0.976
compound=CCOCCc1ccc(OCCNc2ncnc(CC)c2Cl)c(C)c1C test_system="Parabacteroides merdae" readout_kind="growth AUC" value_reported=0.92
compound="CCC(C)c1cc([N+](=O)[O-])cc([N+](=O)[O-])c1OC(=O)OC(C)C (stereo unspecified)" test_system="Parabacteroides merdae" readout_kind="growth AUC" value_reported=0.929
compound=CC(C)c1nn(C(=O)NC(C)(C)C)c(=O)n1N test_system="Parabacteroides merdae" readout_kind="growth AUC" value_reported=1.02
compound=CNc1nc(NC(C)C)nc(SC)n1 test_system="Parabacteroides merdae" readout_kind="growth AUC" value_reported=0.993

* * *

This listing pairs compounds with measured growth AUC.
Tested on: Odoribacter splanchnicus
Experiment: growth AUC relative to DMSO control (median of replicates) (fraction); higher = more growth (less inhibition), active = hit call of the paper
Conditions: 20 µM; 24 h
READOUT_KIND: growth AUC

compound=COc1ccccc1C(=O)NS(=O)(=O)c1ccc(C(=O)NC2CC2)cc1 value_reported=0.989
compound=CCOC(=O)Nc1cccc(OC(=O)Nc2cccc(C)c2)c1 value_reported=1.08
compound="CCCCCCC(C)OC(=O)COc1nc(F)c(Cl)c(N)c1Cl (stereo unspecified)" value_reported=1.04
compound=O=C(O)[C@@H](S)[C@@H](S)C(=O)O value_reported=0.985
compound=CC[N+](CC)(CC(=O)Nc1c(C)cccc1C)Cc1ccccc1.O=C([O-])c1ccccc1 value_reported=0.995
compound=O=C1NCCN1 value_reported=1.04

* * *

System: Streptococcus salivarius
Experiment: growth AUC relative to DMSO control (median of replicates) (fraction); higher = more growth (less inhibition), active = hit call of the paper
Details: 20 µM; 24 h
READOUT_KIND: growth AUC

compound=CC(C)N(C(=O)C(=O)O)c1ccccc1 readout_kind="growth AUC" value_reported=1.02
compound=Nc1nc2ccccc2[nH]1 readout_kind="growth AUC" value_reported=0.953
compound=c1ccc(Sc2ccccc2)cc1 readout_kind="growth AUC" value_reported=0.994
compound=Oc1ccccc1O readout_kind="growth AUC" value_reported=0.987
compound=CC(C)(SC(=O)N1CCCCC1)c1ccccc1 readout_kind="growth AUC" value_reported=0.98
compound=COCCOc1ccccc1S(=O)(=O)NC(=O)Nc1nc(OC)nc(OC)n1 readout_kind="growth AUC" value_reported=0.98
compound="NC(Cn1cncn1)C(=O)O (stereo unspecified)" readout_kind="growth AUC" value_reported=0.998
compound=CCOC(=O)CSc1nc(C(C)(C)C)nn1C(=O)N(C)C readout_kind="growth AUC" value_reported=0.957
compound=COCCN(C(=O)CO)c1c(C)cccc1C(=O)O readout_kind="growth AUC" value_reported=0.965
compound=CC(C)([CH2][Sn]([CH2]C(C)(C)c1ccccc1)([CH2]C(C)(C)c1ccccc1)[O][Sn]([CH2]C(C)(C)c1ccccc1)([CH2]C(C)(C)c1ccccc1)[CH2]C(C)(C)c1ccccc1)c1ccccc1 readout_kind="growth AUC" value_reported=0.972
compound=CCOC(=O)[C@@H](C)Oc1ccc(Oc2cnc3cc(Cl)ccc3n2)cc1 readout_kind="growth AUC" value_reported=1.04
